# TESTED TARGET: CYP2C19 (Homo sapiens)
# Sequence (P33261 whole entry): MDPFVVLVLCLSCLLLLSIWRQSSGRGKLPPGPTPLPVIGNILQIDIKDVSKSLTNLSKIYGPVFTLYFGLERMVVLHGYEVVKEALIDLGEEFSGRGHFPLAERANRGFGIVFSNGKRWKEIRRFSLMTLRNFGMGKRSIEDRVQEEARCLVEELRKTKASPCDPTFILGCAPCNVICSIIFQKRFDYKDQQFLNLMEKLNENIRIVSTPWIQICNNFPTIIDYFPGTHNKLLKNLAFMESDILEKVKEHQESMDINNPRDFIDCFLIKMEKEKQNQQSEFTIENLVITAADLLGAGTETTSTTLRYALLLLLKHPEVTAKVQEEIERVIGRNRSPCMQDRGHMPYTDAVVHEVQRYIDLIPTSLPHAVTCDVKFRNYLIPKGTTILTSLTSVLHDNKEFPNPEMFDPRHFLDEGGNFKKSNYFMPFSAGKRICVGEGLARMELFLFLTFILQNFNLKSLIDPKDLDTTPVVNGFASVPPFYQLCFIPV
PROPERTY NAME: IC50

Prompt line: Report IC50 under test system CYP2C19 (Homo sapiens) for `C[C@@H]1CCO[C@H]2Cn3cc(C(=O)NCc4ccc(F)cc4F)c(=O)c(O)c3C(=O)N12` .
Response line: > 50 µM

---

# ASSAY COMMENT: Multiple-dose pharmacokinetic properties (Table 7)
# Format: in vivo, human
# CONDITION LABEL: human, in vivo; healthy subjects (n = 60), 300 mg once daily
PROPERTY NAME: Cmax
# do not omit the unit; it follows the number

Prompt line: Answer with reported Cmax of Nc1ccn([C@@H]2CS[C@H](CO)O2)c(=O)n1 [Lamivudine]
Response line: 2040 ng/mL
